test.system: human NGF (R&D system) (human, UniProt P01138 122-241)
Sequence (P01138 122-241 limits assumed): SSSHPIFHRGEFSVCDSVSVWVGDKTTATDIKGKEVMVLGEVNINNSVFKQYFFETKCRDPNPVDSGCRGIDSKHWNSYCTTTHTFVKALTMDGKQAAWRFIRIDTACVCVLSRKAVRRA
protocol.notes: cell-based or functional assay
parameter: TF1 Cell Proliferation Inhibition Assay IC50

Answered examples (2):
binder: Ab16 (antibody, human IgG1, V domains shown) VH: EVQLVQSGAEVKKPGATVKISCKVSGYSFITYWISWVQQAPGKGLEWMGAIDPSDSDARYSPSFQGRVTITADTSTDTAYMELSSLRSEDTAVYYCAKSDPGYSGYSLLYGFDSWGQGTLVTVSS VL: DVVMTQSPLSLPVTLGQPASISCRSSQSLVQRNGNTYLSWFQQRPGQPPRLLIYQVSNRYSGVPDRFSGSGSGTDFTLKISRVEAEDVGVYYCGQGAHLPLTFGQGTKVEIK
observed.measurement: 0.3 nM
--
binder: Ab10 (antibody, human IgG1, V domains shown) VH: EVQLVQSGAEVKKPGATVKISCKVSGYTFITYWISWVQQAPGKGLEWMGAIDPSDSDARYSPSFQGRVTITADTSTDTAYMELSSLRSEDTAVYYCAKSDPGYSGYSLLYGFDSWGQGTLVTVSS VL: DIVMTQSPLSLPVTLGQPASISCRSSQSLVQRNGNTYLSWFQQRPGQPPRLLIYQVSNRYSGVPDRFSGSGSGTDFTLKISRVEAEDVGVYYCGQGAHLPLTFGQGTKVEIK
observed.measurement: 0.254 nM

Moving on to another binder below.
TF1 Cell Proliferation Inhibition Assay IC50 lookup needed for Ab55 (antibody, human IgG1, V domains shown) VH: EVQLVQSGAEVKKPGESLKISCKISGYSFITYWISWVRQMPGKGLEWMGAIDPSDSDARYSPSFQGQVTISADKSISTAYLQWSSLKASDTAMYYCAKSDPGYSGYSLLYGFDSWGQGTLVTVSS VL: DVVMTQSPLSLPVTLGQPASISCRSSQSLVQRNGNTYLSWYQQRPGQPPRLLIYQVSNRYSGVPDRFSGSGSGTDFTLKISRVEAEDVGVYYCGQGAHLPLTFGQGTKVEIK , thanks.
0.184 nM
